Source listed as paper PMC9220111.

EXPERIMENT DESCRIPTION: Plasma pharmacokinetics of CMS and colistin after multi-dose intravenous infusions of CMS
CONDITIONS USED: human, plasma, iv, 2.5 mg/kg CBA, Tmax, Day 1 (first dose); CMS 2.5 mg/kg CBA i.v.; plasma; mean ± SD, n = 12; SD
Positions of bridges follow the written chain, without caps; N, C: chain ends. Non-standard residues stand in square brackets, D forms with d. Residues, ends and D or L forms follow the SMILES beside them. *: point of attachment. X1 = CC[C@H](C)CCCCC(=O)*; Dab = NCC[C@H](N)C(=O)O

COMPOUND	UNITS LABEL	Tmax
CC[C@H](C)CCCCC(=O)N[C@@H](CCN)C(=O)N[C@H](C(=O)N[C@@H](CCN)C(=O)N[C@H]1CCNC(=O)[C@H]([C@@H](C)O)NC(=O)[C@H](CCN)NC(=O)[C@H](CCN)NC(=O)[C@H](CC(C)C)NC(=O)[C@@H](CC(C)C)NC(=O)[C@H](CCN)NC1=O)[C@@H](C)O [colistin] (X1-[Dab]T[Dab][Dab][Dab][dL]L[Dab][Dab]T; lactam 4-C)	h	4.42

* * *

EXPERIMENT DESCRIPTION: Plasma pharmacokinetics of CMS and colistin after multi-dose intravenous infusions of CMS
CONDITIONS USED: human, plasma, iv, 2.5 mg/kg CBA, Tmax, median, after the first dose; median, n = 12
Positions of bridges follow the written chain, without caps; N, C: chain ends. Non-standard residues stand in square brackets, D forms with d. Residues, ends and D or L forms follow the SMILES beside them. *: point of attachment. X1 = CC[C@H](C)CCCCC(=O)*; Dab = NCC[C@H](N)C(=O)O

MOLECULE	UNITS LABEL	Tmax
CC[C@H](C)CCCCC(=O)N[C@@H](CCN)C(=O)N[C@H](C(=O)N[C@@H](CCN)C(=O)N[C@H]1CCNC(=O)[C@H]([C@@H](C)O)NC(=O)[C@H](CCN)NC(=O)[C@H](CCN)NC(=O)[C@H](CC(C)C)NC(=O)[C@@H](CC(C)C)NC(=O)[C@H](CCN)NC1=O)[C@@H](C)O [colistin] (X1-[Dab]T[Dab][Dab][Dab][dL]L[Dab][Dab]T; lactam 4-C)	h	5

* * *

EXPERIMENT DESCRIPTION: Plasma pharmacokinetics of CMS and colistin after multi-dose intravenous infusions of CMS
CONDITIONS USED: human, plasma, iv, 2.5 mg/kg CBA; SD
Positions of bridges follow the written chain, without caps; N, C: chain ends. Non-standard residues stand in square brackets, D forms with d. Residues, ends and D or L forms follow the SMILES beside them. *: point of attachment. X1 = CC[C@H](C)CCCCC(=O)*; Dab = NCC[C@H](N)C(=O)O

MOLECULE	level at 144 h [ng/mL]
CC[C@H](C)CCCCC(=O)N[C@@H](CCN)C(=O)N[C@H](C(=O)N[C@@H](CCN)C(=O)N[C@H]1CCNC(=O)[C@H]([C@@H](C)O)NC(=O)[C@H](CCN)NC(=O)[C@H](CCN)NC(=O)[C@H](CC(C)C)NC(=O)[C@@H](CC(C)C)NC(=O)[C@H](CCN)NC1=O)[C@@H](C)O [colistin] (X1-[Dab]T[Dab][Dab][Dab][dL]L[Dab][Dab]T; lactam 4-C)	754

* * *

EXPERIMENT DESCRIPTION: Plasma pharmacokinetics of CMS and colistin after multi-dose intravenous infusions of CMS
CONDITIONS USED: human, plasma, iv, 2.5 mg/kg CBA, AUC0–12, Day 1 (first dose); CMS 2.5 mg/kg CBA i.v.; plasma; mean ± SD, n = 12; SD
Positions of bridges follow the written chain, without caps; N, C: chain ends. Non-standard residues stand in square brackets, D forms with d. Residues, ends and D or L forms follow the SMILES beside them. *: point of attachment. X1 = CC[C@H](C)CCCCC(=O)*; Dab = NCC[C@H](N)C(=O)O

MOLECULE	AUC(0-t)
CC[C@H](C)CCCCC(=O)N[C@@H](CCN)C(=O)N[C@H](C(=O)N[C@@H](CCN)C(=O)N[C@H]1CCNC(=O)[C@H]([C@@H](C)O)NC(=O)[C@H](CCN)NC(=O)[C@H](CCN)NC(=O)[C@H](CC(C)C)NC(=O)[C@@H](CC(C)C)NC(=O)[C@H](CCN)NC1=O)[C@@H](C)O [colistin] (X1-[Dab]T[Dab][Dab][Dab][dL]L[Dab][Dab]T; lactam 4-C)	9800 ng·h/mL

* * *

EXPERIMENT DESCRIPTION: Plasma pharmacokinetics of CMS and colistin after multi-dose intravenous infusions of CMS
CONDITIONS USED: human, plasma, iv, 2.5 mg/kg CBA, CLt, Day 7 (last dose, steady state); CMS 2.5 mg/kg CBA i.v. q12 h 7 days; mean ± SD, n = 12; SD
Positions of bridges follow the written chain, without caps; N, C: chain ends. Non-standard residues stand in square brackets, D forms with d. Residues, ends and D or L forms follow the SMILES beside them. *: point of attachment. X1 = CC[C@H](C)CCCCC(=O)*; Dab = NCC[C@H](N)C(=O)O
RECORDED METRIC: clearance (mL/min/kg)

COMPOUND	UNITS LABEL	VAL
CC[C@H](C)CCCCC(=O)N[C@@H](CCN)C(=O)N[C@H](C(=O)N[C@@H](CCN)C(=O)N[C@H]1CCNC(=O)[C@H]([C@@H](C)O)NC(=O)[C@H](CCN)NC(=O)[C@H](CCN)NC(=O)[C@H](CC(C)C)NC(=O)[C@@H](CC(C)C)NC(=O)[C@H](CCN)NC1=O)[C@@H](C)O [colistin] (X1-[Dab]T[Dab][Dab][Dab][dL]L[Dab][Dab]T; lactam 4-C)	mL/min/kg	3

* * *

EXPERIMENT DESCRIPTION: Plasma pharmacokinetics of CMS and colistin after multi-dose intravenous infusions of CMS
CONDITIONS USED: human, plasma, iv, 2.5 mg/kg CBA, AUC0–24, Day 1 (first dose); CMS 2.5 mg/kg CBA i.v.; plasma; mean ± SD, n = 12; SD
Positions of bridges follow the written chain, without caps; N, C: chain ends. Non-standard residues stand in square brackets, D forms with d. Residues, ends and D or L forms follow the SMILES beside them. *: point of attachment. X1 = CC[C@H](C)CCCCC(=O)*; Dab = NCC[C@H](N)C(=O)O
RECORDED METRIC: AUC(0-t) (µg·h/mL)

COMPOUND	VAL
CC[C@H](C)CCCCC(=O)N[C@@H](CCN)C(=O)N[C@H](C(=O)N[C@@H](CCN)C(=O)N[C@H]1CCNC(=O)[C@H]([C@@H](C)O)NC(=O)[C@H](CCN)NC(=O)[C@H](CCN)NC(=O)[C@H](CC(C)C)NC(=O)[C@@H](CC(C)C)NC(=O)[C@H](CCN)NC1=O)[C@@H](C)O [colistin] (X1-[Dab]T[Dab][Dab][Dab][dL]L[Dab][Dab]T; lactam 4-C)	12.6

* * *

EXPERIMENT DESCRIPTION: Plasma pharmacokinetics of CMS and colistin after multi-dose intravenous infusions of CMS
CONDITIONS USED: human, plasma, iv, 2.5 mg/kg CBA; SD
Positions of bridges follow the written chain, without caps; N, C: chain ends. Non-standard residues stand in square brackets, D forms with d. Residues, ends and D or L forms follow the SMILES beside them. *: point of attachment. X1 = CC[C@H](C)CCCCC(=O)*; Dab = NCC[C@H](N)C(=O)O

MOLECULE	level at 120 h / ng/mL
CC[C@H](C)CCCCC(=O)N[C@@H](CCN)C(=O)N[C@H](C(=O)N[C@@H](CCN)C(=O)N[C@H]1CCNC(=O)[C@H]([C@@H](C)O)NC(=O)[C@H](CCN)NC(=O)[C@H](CCN)NC(=O)[C@H](CC(C)C)NC(=O)[C@@H](CC(C)C)NC(=O)[C@H](CCN)NC1=O)[C@@H](C)O [colistin] (X1-[Dab]T[Dab][Dab][Dab][dL]L[Dab][Dab]T; lactam 4-C)	738

* * *

EXPERIMENT DESCRIPTION: Plasma pharmacokinetics of CMS and colistin after multi-dose intravenous infusions of CMS
CONDITIONS USED: human, plasma, iv, 2.5 mg/kg CBA, T1/2, Day 1 (first dose); CMS 2.5 mg/kg CBA i.v.; plasma; mean ± SD, n = 12; SD
Positions of bridges follow the written chain, without caps; N, C: chain ends. Non-standard residues stand in square brackets, D forms with d. Residues, ends and D or L forms follow the SMILES beside them. *: point of attachment. X1 = CC[C@H](C)CCCCC(=O)*; Dab = NCC[C@H](N)C(=O)O
RECORDED METRIC: half-life

MOLECULE	VAL
CC[C@H](C)CCCCC(=O)N[C@@H](CCN)C(=O)N[C@H](C(=O)N[C@@H](CCN)C(=O)N[C@H]1CCNC(=O)[C@H]([C@@H](C)O)NC(=O)[C@H](CCN)NC(=O)[C@H](CCN)NC(=O)[C@H](CC(C)C)NC(=O)[C@@H](CC(C)C)NC(=O)[C@H](CCN)NC1=O)[C@@H](C)O [colistin] (X1-[Dab]T[Dab][Dab][Dab][dL]L[Dab][Dab]T; lactam 4-C)	5.15 h
